Test system: cassia
Test: Test A post-emergence
Format: in vivo, Cassia tora
Design: key: 0 = no effect, 10 = maximum effect; letter = response symbol
Settings: 0.4 kg/ha
Assign response rating to each entry below.
One number for each entry, in C.

• COc1cc(OC)nc(NC(=O)NS(=O)(=O)c2ccccc2C(=O)OCCCl)n1 [drawing 420] = 9
• COc1cc(C)nc(NC(=O)NS(=O)(=O)c2ccccc2C(=O)OCCCl)n1 [drawing 421] = 10
• CNC(=O)c1ccccc1S(=O)(=O)NC(=O)Nc1nc(C)cc(OC)n1 [drawing 466] = 9

Please go through the list and note response rating for each compound.
1. COc1nc(C)nc(NC(=O)NS(=O)(=O)c2ccccc2C(=O)OC(C)Cc2ccccc2)n1 (stereo not shown) [drawing 457]
2. COC(=O)c1ccccc1S(=O)(=O)NC(=O)Nc1nc(OC)cc(OC)n1 [drawing 414]
3. COc1cc(OC)nc(NC(=O)NS(=O)(=O)c2ccccc2C(=O)OC(C)C)n1 [drawing 436]

**A:**
1: 10; 2: 9; 3: 9

----------
Task for the reader: assign each of the following molecules its reported response rating.
Tested on: cassia
Assay: Test A post-emergence
Type: in vivo, Cassia tora
Design: key: 0 = no effect, 10 = maximum effect; letter = response symbol
Details: 0.4 kg/ha
Please make sure the unit comes right after the number.

Look over these answered cases.
* CCCCCCCCCCOC(=O)c1ccccc1S(=O)(=O)NC(=O)Nc1nc(OC)nc(OC)n1 [drawing 429] | 5G
* CCCCCCCCCCOC(=O)c1ccccc1S(=O)(=O)NC(=O)Nc1nc(OC)cc(OC)n1 [drawing 427] | 5G

**Q:** Need response rating, item CCCCCCCCCCOC(=O)c1ccccc1S(=O)(=O)NC(=O)Nc1nc(C)cc(OC)n1 [drawing 428]
**A:** 5G

----------
Test system: corn
Test: Test A pre-emergence
Format: in vivo
Design: key: 0 = no effect, 10 = maximum effect; letter = response symbol
Settings: 0.4 kg/ha
Give response rating for every item shown.
One number for each entry, in H.

These recorded examples may help you get a feel for the data.
• COCCc1nc(NC(=O)NS(=O)(=O)c2ccccc2C(=O)OC)nc(OC)n1 [drawing 541] = 10
• COc1nc(C)nc(NC(=O)NS(=O)(=O)c2ccccc2C(=O)OC(C)Cc2ccccc2)n1 (stereo not shown) [drawing 524] = 9

Below is a list of molecules. For each, state its recorded response rating.
1. COC(=O)c1cc(Cl)ccc1S(=O)(=O)NC(=O)Nc1nc(OC)cc(OC)n1 [drawing 500]
2. COC(=O)c1ccccc1S(=O)(=O)NC(=O)Nc1nc(OC)cc(OC(C)C(=O)OC)n1 (stereo not shown) [drawing 535]
3. COCCCOc1cc(C)nc(NC(=O)NS(=O)(=O)c2ccccc2C(=O)OC)n1 [drawing 537]
4. COc1cc(C)nc(NC(=O)NS(=O)(=O)c2ccccc2C(=O)N(C)C)n1 [drawing 532]

**A:**
1. 9
2. 10
3. 9
4. 9

----------
Test system: rice
Test: Test A post-emergence
Assay type: in vivo
Parameters: key: 0 = no effect, 10 = maximum effect; letter = response symbol
Conditions: 0.4 kg/ha
Task for the reader: assign each of the following compounds its reported response rating.
Answers are plain numbers, in G.

Worked set:
* CCOCCSc1cc(C)nc(NC(=O)NS(=O)(=O)c2ccccc2C(=O)OC)n1 [drawing 469] | 8
* CCCCCCCCCCOC(=O)c1ccccc1S(=O)(=O)NC(=O)Nc1nc(OC)nc(OC)n1 [drawing 429] | 2

Alright, here's another compound for you.
**Q:** So what does the record say about response rating for CCCCCCCCCCOC(=O)c1ccccc1S(=O)(=O)NC(=O)Nc1nc(OC)cc(OC)n1 [drawing 427] ?
**A:** 8
